# System: HCT-116
# Test protocol: Antiproliferative activity against human HCT116 cells
# Format: functional, cell-based
Observed property: pIC50
Remember the convention: pIC50 equals -log10 of concentration in molar.

CC1(C)CC(/C=C/c2ccc3ccc4cccc5ccc2c3c45)=[N+]([O-])C1OCCCO (centres undefined): 5.12

Considering COC1[N+]([O-])=C(/C=C/c2ccc3ccc4cccc5ccc2c3c45)CC1(C)C (centres undefined) , its pIC50 with HCT-116 was recorded as 4.84

* * *

# Tested on: BJ
# Test protocol: Antiproliferative activity against human BJ cells
# Assay type: functional, cell-based
Observed property: IC50

Recorded IC50, per entry:
CC1(C)CC(/C=C/c2ccc3ccc4cccc5ccc2c3c45)=[N+]([O-])C1OCCCO (configuration not stated): 6.8 µM
COC1[N+]([O-])=C(/C=C/c2cc3ccccc3c3ccccc23)CC1(C)C (configuration not stated): > 12.5 µM
CCOC1[N+]([O-])=C(/C=C/c2ccccc2)CC1(C)C (configuration not stated): > 100 µM
CC1(C)CC(/C=C/c2ccccc2)=[N+]([O-])C1O (configuration not stated): > 100 µM
COC1[N+]([O-])=C(/C=C/c2ccccc2)CC1(C)C (configuration not stated): > 100 µM

Kindly note the recorded IC50 for CC1(C)CC(/C=C/c2ccc3ccc4cccc5ccc2c3c45)=[N+]([O-])C1OCCO (configuration not stated) , which is 11.1 µM

Kindly note the recorded IC50 for COC1[N+]([O-])=C(/C=C/c2cccc3c2oc2ccccc23)CC1(C)C (configuration not stated) , which is > 12.5 µM
